Below is a list of entries, each paired with its recorded MIC value.
Tested on: C. albicans SC5314
Type: cell-based, Candida albicans
Details: SC 5314; YNB-AS medium; 5 × 10^3 cfu mL^-1, 37°C, 24 h, turbidity 531 nm, at least 80% decrease
Where a SMILES comes first, the peptide text is derived from it. [ ]: non-standard residue; d: D form. The star is where a group is joined. Fumaryl(OMe) = COC(=O)/C=C/C(=O)*; Dap = NC[C@H](N)C(=O)O
// return numeric value only (unit: mg/L, not printed)

Example entries and their recorded answers appear below.
MOLECULE: COC(=O)/C=C/C(=O)NC[C@H](N)C(=O)N[C@@H](CCCNC(=N)N)C(=O)N[C@@H](CCCCN)C(=O)N[C@@H](CCCCN)C(=O)N[C@@H](Cc1c[nH]c2ccccc12)C(=O)N[C@@H](Cc1ccccc1)C(=O)N[C@@H](Cc1c[nH]c2ccccc12)C(=O)O [Peptide F7, FMDP-Arg-Lys-Lys-Trp-Phe-Trp] (H-[Dap](Fumaryl(OMe))RKKWFW-OH; N-terminus and C-terminus assumed)
RECORDED_MEASUREMENT: 16
--
MOLECULE: CC(C)[C@H](NC(=O)[C@H](Cc1c[nH]c2ccccc12)NC(=O)[C@H](Cc1ccccc1)NC(=O)[C@@H](NC(=O)[C@@H](NC(=O)[C@H](CCCCN)NC(=O)[C@@H](N)CCCCN)C(C)C)C(C)C)C(=O)N[C@@H](CCCCN)C(=O)N[C@@H](Cc1ccccc1)C(=O)N[C@@H](CCCCN)C(=O)O [Peptide P10, Lys-Lys-Val-Val-Phe-Trp-Val-Lys-Phe-Lys] (H-KKVVFWVKFK-OH)
RECORDED_MEASUREMENT: 64

Switching to the query record.
Entry COC(=O)/C=C/C(=O)NC[C@H](NC(=O)[C@H](CCSC)NC(=O)[C@@H](NC(=O)[C@@H]1CCCN1C(=O)[C@H](CC(C)C)NC(=O)[C@@H](N)CCCCN)C(C)C)C(=O)O [Peptide F6, Lys-Leu-Pro-Val-Met-FMDP] (H-KLPVM[Dap](Fumaryl(OMe))-OH; N-terminus and C-terminus assumed) has what MIC?
4
